B1: Calcium-binding protein 2, residues 155 to 219; numbered along this chain, Q9NPB3 (parent)
chain: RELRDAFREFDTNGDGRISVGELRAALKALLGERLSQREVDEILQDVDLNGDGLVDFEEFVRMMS

variants of: B1; assay: abundance fitness (aPCA) (normalised: wild type 0, dead -1); higher = more abundant; growth selection in yeast, the domain comes from the species named; settings: Homo sapiens
# binning rule on abundance fitness: one = under -0.2, two = from -0.2 up to 0.001, three = 0.001 and over

Some solved entries appear below for comparison.
VARIANT_NOTATION: L23S
ASSIGNED_LABEL: one

VARIANT_NOTATION: A29W
ASSIGNED_LABEL: two

VARIANT_NOTATION: G53T
ASSIGNED_LABEL: two

VARIANT_NOTATION: G53Y
ASSIGNED_LABEL: two

VARIANT_NOTATION: R17L
ASSIGNED_LABEL: three

Task: Determine which band this variant sits in: D46W
Output: one

Task: Would you mind sorting V40I into the appropriate category?
Output: three
